# Tested on: 186277-243-T-J2-PDC multi-cell spheroid viability
# assayProcedure: Anticancer human tumor 186277-243-T-J2-PDC patient-derived colon adenocarcinoma cell line growth inhibition [PI3K]
# conditionLabel: curve of first compound; second compound 3.16 µM
readoutType: pIC50
Answers are plain numbers, as −log10 of the molar value.

CC(=O)c1c(C)c2cnc(Nc3ccc(N4CCNCC4)cn3)nc2n(C2CCCC2)c1=O + Cc1nc(NC(=O)N2CCCC2C(N)=O)sc1-c1ccnc(C(C)(C)C(F)(F)F)c1: 7.72
Cn1ncnc1[C@H]1c2n[nH]c(=O)c3cc(F)cc(c23)N[C@@H]1c1ccc(F)cc1 + Cc1nc(NC(=O)N2CCCC2C(N)=O)sc1-c1ccnc(C(C)(C)C(F)(F)F)c1: 8.60
CC(C)n1nc(-c2ccc3oc(N)nc3c2)c2c(N)ncnc21 + Cc1nc(NC(=O)N2CCCC2C(N)=O)sc1-c1ccnc(C(C)(C)C(F)(F)F)c1: 8.69

Field: pIC50. Fill in for each record below.
1. Cn1cnc2c(F)c(Nc3ccc(Br)cc3Cl)c(C(=O)NOCCO)cc21 + CC(Nc1ncnc2nc[nH]c12)c1cc2cccc(Cl)c2c(=O)n1-c1ccccc1
2. CC(C)NCC(C(=O)N1CCN(c2ncnc3c2C(C)CC3O)CC1)c1ccc(Cl)cc1 (stereo unspecified) + CC(Nc1ncnc2nc[nH]c12)c1cc2cccc(Cl)c2c(=O)n1-c1ccccc1
3. CCCS(=O)(=O)Nc1ccc(F)c(C(=O)c2c[nH]c3ncc(-c4ccc(Cl)cc4)cc23)c1F + CC(Nc1ncnc2nc[nH]c12)c1cc2cccc(Cl)c2c(=O)n1-c1ccccc1

1. 7.20
2. 6.27
3. 5.28

* * *

Consider the following molecules; for each one, report its viability, T/C.
# System: 186277-243-T-J2-PDC multi-cell spheroid viability
# assayProcedure: Anticancer human tumor 186277-243-T-J2-PDC cell line growth inhibition [PI3K];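 further: spheroids exposed to compounds for seven days before viability reading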;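 on viability, T/C: 100% = DMSO vehicle control viability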
# conditionLabel: second compound 0.00316 µM; first compound 0.1 µM; stronger effect = lower value

C[C@@H](NC(=O)c1ncnc(N)c1Cl)c1ncc(C(=O)Nc2cc(C(F)(F)F)c(Cl)cn2)s1 + COc1c(OCCCN2CCOCC2)ccc2c3n(c(=NC(=O)c4cnc(N)nc4)nc12)CCN3: 94%
Cn1nccc1Nc1nccc(-c2ccn(C(CO)c3ccc(Cl)c(F)c3)c(=O)c2)n1 (stereo unspecified) + CC(Nc1ccc2c(c1)OCCn1cc(N3C(=O)OCC3C(F)F)nc1-2)C(N)=O: 114%
CC1(C)CCC(Nc2ncc(C(F)(F)F)c(-c3c[nH]c4c(P(C)(C)=O)c(C#N)ccc34)n2)CN1 (stereo unspecified) + COc1c(OCCCN2CCOCC2)ccc2c3n(c(=NC(=O)c4cnc(N)nc4)nc12)CCN3: 57.4%
CNC(=O)c1ccc(N2C(=S)N(c3ccc(C#N)c(C(F)(F)F)c3)C(=O)C2(C)C)cc1F + CC(Nc1ccc2c(c1)OCCn1cc(N3C(=O)OCC3C(F)F)nc1-2)C(N)=O: 95.8%
CC1(C)CCC(Nc2ncc(C(F)(F)F)c(-c3c[nH]c4c(P(C)(C)=O)c(C#N)ccc34)n2)CN1 (stereo unspecified) + CC(Nc1ccc2c(c1)OCCn1cc(N3C(=O)OCC3C(F)F)nc1-2)C(N)=O: 45.1%
CC(C)n1nc(-c2ccc3oc(N)nc3c2)c2c(N)ncnc21 + CC(Nc1ccc2c(c1)OCCn1cc(N3C(=O)OCC3C(F)F)nc1-2)C(N)=O: 19.1%
C#Cc1c(F)ccc2cc(O)cc(-c3ncc4c(N5CC6CCC(C5)N6)nc(OCC56CCCN5CC(F)C6)nc4c3F)c12 (stereo unspecified) + CC(Nc1ccc2c(c1)OCCn1cc(N3C(=O)OCC3C(F)F)nc1-2)C(N)=O: 31.6%
C[C@@H](NC(=O)c1ncnc(N)c1Cl)c1ncc(C(=O)Nc2cc(C(F)(F)F)c(Cl)cn2)s1 + CC(Nc1ccc2c(c1)OCCn1cc(N3C(=O)OCC3C(F)F)nc1-2)C(N)=O: 87.1%
CC(C)NCC(C(=O)N1CCN(c2ncnc3c2C(C)CC3O)CC1)c1ccc(Cl)cc1 (stereo unspecified) + CC(Nc1ccc2c(c1)OCCn1cc(N3C(=O)OCC3C(F)F)nc1-2)C(N)=O: 77.1%
CC(Cn1ccc(-c2ccc(C#N)c(Cl)c2)n1)NC(=O)c1cc(C(C)O)[nH]n1 (stereo unspecified) + COc1c(OCCCN2CCOCC2)ccc2c3n(c(=NC(=O)c4cnc(N)nc4)nc12)CCN3: 92.1%

Moving on to the next molecule.
Given C=CC(=O)N1CCN(c2nc(=O)n(-c3c(C)ccnc3C(C)C)c3nc(-c4c(O)cccc4F)c(F)cc23)C(C)C1 (stereo unspecified) + COc1c(OCCCN2CCOCC2)ccc2c3n(c(=NC(=O)c4cnc(N)nc4)nc12)CCN3 , state its recorded viability, T/C.
88.7%
